Molecular target: native mouse MET on living mouse cells (mouse, UniProt P16056 25-1379)
Test: cell-based or functional assay
Consider the following binders and their measured cell scattering score, MLP29, 9.000 nM readings.
Give the number; score 0-4 is assumed, so skip it.

binder	reported_property	unit_label	result
chimeric llama-human IgG1 mAb 71A3 (antibody, V domains shown) VH: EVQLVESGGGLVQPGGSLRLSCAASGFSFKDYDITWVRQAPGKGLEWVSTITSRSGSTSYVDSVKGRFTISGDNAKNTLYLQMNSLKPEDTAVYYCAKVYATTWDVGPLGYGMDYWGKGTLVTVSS VL: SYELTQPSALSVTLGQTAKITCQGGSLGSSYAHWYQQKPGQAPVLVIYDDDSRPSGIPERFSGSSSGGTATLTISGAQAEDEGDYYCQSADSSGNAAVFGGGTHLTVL	cell scattering score, MLP29, 9.000 nM	score 0-4	4

Please list cell scattering score, MLP29, 9.000 nM recorded for the binder chimeric llama-human IgG1 mAb 71G3 (antibody, V domains shown) VH: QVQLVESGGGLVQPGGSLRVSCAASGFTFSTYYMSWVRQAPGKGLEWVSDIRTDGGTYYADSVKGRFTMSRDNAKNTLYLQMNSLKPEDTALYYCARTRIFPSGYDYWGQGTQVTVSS VL: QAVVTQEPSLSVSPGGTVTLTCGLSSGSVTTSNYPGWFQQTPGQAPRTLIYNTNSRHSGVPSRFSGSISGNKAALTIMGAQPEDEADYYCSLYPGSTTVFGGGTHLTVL
4

Where these numbers come from: patent US20210024639A1
